// provenance: paper PMC9482650

# TESTED TARGET: T1, ARHGAP21, Q5T5U3
# T1 sequence (Q5T5U3 45-169, limits assumed, looked up): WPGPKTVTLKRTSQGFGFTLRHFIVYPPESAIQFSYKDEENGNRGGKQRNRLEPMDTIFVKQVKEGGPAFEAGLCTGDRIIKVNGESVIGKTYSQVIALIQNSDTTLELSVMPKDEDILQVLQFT
# ASSAY PROTOCOL: holdup assay
# Set-up: key: below the threshold = too weak to quantify, mostly under pKd 3.1 to 4
# CONDITION PARAMETERS: plain residues with an end cap or a label only (N-terminal biotin on a linker: ado-ado)
TEST READOUT: pKd

Worked set:
> print(dat)
                                 binder  test.readout           meas.value
1          PRISRSQSEL [CCDC134, Q9H6E4]           pKd  below the threshold
2  YLEPVLSSEL [ATP2A2, P16615;P16615-3]           pKd  below the threshold
3         GNSVLKSTQF [SLC22A12, Q96S37]           pKd  below the threshold
4            VRNLPESEEL [MYOZ3, Q8TDC0]           pKd                 3.59
5            IPLDGETEEL [MYOZ1, Q9NP98]           pKd  below the threshold
6           EALLQMESVA [CAVIN3, Q969G5]           pKd  below the threshold

Which pKd is listed for QMNQTLPVQV [EPHB3, P54753] ?
4

Which pKd is listed for QPCFNKLFPL [LPXN, O60711] ?
3.91
